experimentalDetails: chemical genetic growth profiling, strain panel (AID 1159580);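 also: tested at 20 µM; growth read once vehicle control cultures reached saturation at 30 °C; 1 = growth at the plate median or of vehicle wells; lower values mean less growth of the strain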
cond: S. cerevisiae deletion strains, growth OD, locus YDR052C, strain DBF4, stronger effect = lower value
Hit rate of the full screen: of about 5,500 compounds, about 2,000 (36%) were called active. Another 18% or so got no clear call; they are omitted. The list shows a part of the results.
assayReadout: normalized growth
Just the number.

Below, 3 compounds whose answers are already recorded.
1) COc1ccc(CC2CCC(=NOC(=O)c3c(Cl)cccc3Cl)CC2)cc1 (stereo not given) | 0.99
2) CC(C)(C)C(=O)/C(C#N)=C/c1c(Cl)cccc1Cl | 0.915
3) Cc1c(S(=O)(=O)c2ccc(Cl)cc2)csc1C(=O)NNc1cccc(Cl)c1 | 0.953

Challenge: Which normalized growth value belongs to `O=S(=O)(Nc1ccc(Oc2ccc(OC(F)(F)F)cc2)cc1)c1cccc(Cl)c1` ?
Response given: 0.98

Challenge: // query: CC1C/C(=N/Nc2ccc(Br)cc2)c2cc(Cl)ccc2S1(=O)=O (stereo not given)
Response given: 0.998

---

experimentalDetails: chemical genetic growth profiling, strain panel (AID 1159580)
cond: S. cerevisiae deletion strains, growth OD, locus YHR013C, strain ard1, stronger effect = lower value
In all, about 5,500 compounds went through this assay and about 2,000 (36%) were called active. Inconclusive results (about 18%) are left out. The list shows a part of the results.
assayReadout: normalized growth
Form: value (number only, do not type unit).

Field: example entries. Status: answers known.
1) NCC(CC(=O)O)c1ccc(Cl)cc1 (configuration not stated) | 0.982
2) O=c1cc(-c2ccc(O)cc2)oc2cc(O)cc(O)c12 | 1.01
3) CNC(=O)Oc1ccc2c(c1)[C@]1(C)CCN(C)[C@@H]1N2C | 0.981

Challenge: I'd like to know its normalized growth. The molecule in question is CN[C@@H]1[C@H](OC2[C@H](O[C@H]3[C@H](O)[C@@H](O)[C@H](N=C(N)N)[C@@H](O)[C@@H]3N=C(N)N)O[C@@H](C)[C@]2(O)C=O)O[C@@H](CO)[C@H](O)[C@H]1O (some centres not stated)
Response given: 1.01

Challenge: Next entry: `S=P(N1CC1)(N1CC1)N1CC1`
Response given: 0.997

Challenge: Item: `CCCC(C(=O)OCCN(CC)CC)(c1ccccc1)c1ccccc1`
Response given: 0.975

Challenge: Continue with `CN(C)CCOC(=O)COc1ccc(Cl)cc1`
Response given: 0.983

---

experimentalDetails: chemical genetic growth profiling, strain panel (AID 1159580)
cond: S. cerevisiae deletion strains, growth OD, locus YLR357W, strain rsc2, stronger effect = lower value
Hit rate of the full screen: of about 5,500 compounds, about 2,000 (36%) were called active. Not shown: some 18% with an inconclusive outcome. This is one part of the list.
assayReadout: normalized growth
// keep it numeric: no unit symbol after the value

Below, 2 molecules whose answers are already recorded.
1. O=[N+]([O-])c1cccc2cn[nH]c12 | 0.993
2. NCC(CC(=O)O)c1ccc(Cl)cc1 (stereo not drawn) | 1

With those in mind, consider the next molecule.
Challenge: Name the reported normalized growth value associated with the molecule `O=[N+]([O-])c1cccc2c(Br)[nH]nc12`
Response given: 1.02

---

experimentalDetails: chemical genetic growth profiling, strain panel (AID 1159580)
cond: S. cerevisiae deletion strains, growth OD, locus YHR200W, strain rpn10, stronger effect = lower value
Hit rate of the full screen: of about 5,500 compounds, about 2,000 (36%) were called active. Roughly 18% stayed inconclusive and do not appear here. Some of the results follow.
Each entry below lists one item and its recorded normalized growth value.
Output spec: single numeric token, no unit.

Known results for compounds:
1) OC1=Cc2c(O)cc(O)cc2OC1(O)c1ccc(O)c(O)c1 (stereo not drawn) | 0.997
2) CC(CN1c2ccccc2Sc2cccnc21)N(C)C (stereo not drawn) | 0.995
3) CC(CCC(=O)O)[C@H]1CCC2C3CC[C@@H]4C[C@H](O)CC[C@]4(C)C3CC[C@@]21C (stereo partly drawn) | 1.02
4) COc1cc(S(C)=O)ccc1-c1nc2ncccc2[nH]1 (stereo not drawn) | 0.991

Challenge: # get_value(readout='normalized growth', item= CCC(=O)c1ccc2c(c1)N(CC(C)N(C)C)c1ccccc1S2 (stereo not drawn) )
Response given: 1

Challenge: Consider next the compound `CC(=O)Nc1nnc(S(N)(=O)=O)s1` in the same way.
Response given: 0.985

---

experimentalDetails: chemical genetic growth profiling, strain panel (AID 1159580)
cond: S. cerevisiae deletion strains, growth OD, locus YMR263W, strain SAP30, stronger effect = lower value
Out of some 5,500 compounds screened, about 2,000 (36%) were called active. Another 18% or so got no clear call; they are omitted. The list shows a part of the results.
assayReadout: normalized growth
Just the number, please.

1) COC(=O)CCCOc1ccc(Cl)cc1Cl | 0.999
2) O=C(Nc1nccs1)c1ccc([N+](=O)[O-])cc1 | 0.986
3) CN(C)N=Nc1nc[nH]c1C(N)=O | 1.02

Challenge: Reported normalized growth, molecule C[C@@H]1O[C@@H](O[C@H]2C[C@@H](O)[C@]3(CO)C4C(CC[C@]3(O)C2)[C@@]2(O)CC[C@H](C3=CC(=O)OC3)[C@@]2(C)C[C@H]4O)[C@H](O)[C@H](O)[C@H]1O (stereo not given in full) : ____
Response given: 1.01

---

experimentalDetails: chemical genetic growth profiling, strain panel (AID 1159580);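 also: tested at 20 µM; growth read once vehicle control cultures reached saturation at 30 °C; 1 = growth at the plate median or of vehicle wells; lower values mean less growth of the strain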
cond: S. cerevisiae deletion strains, growth OD, locus YJR066W, strain TOR1, stronger effect = lower value
Screen size: about 5,500 compounds; about 2,000 (36%) were called active. Inconclusive results (about 18%) are left out. Some of the results follow.
assayReadout: normalized growth
Hey, just send me the number, nothing else.

1) C=C1C2CC[C@@]3(C)[C@H](c4ccoc4)OC(=O)C[C@]13O[C@H]1CC(O)C(C)(C)C(CC(=O)OC)[C@@]21C (stereo partly drawn) | 0.922

Challenge: I'd like to know its normalized growth. The compound in question is `S=C(Nc1cc(Cl)c(Cl)cc1Cl)Nc1ccccc1Br`
Response given: 0.786

Challenge: Try the compound `CC(=O)Nc1ccccc1`
Response given: 0.911

---

Listed here: items and their measured normalized growth.
experimentalDetails: chemical genetic growth profiling, strain panel (AID 1159580);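 also: tested at 20 µM; growth read once vehicle control cultures reached saturation at 30 °C; 1 = growth at the plate median or of vehicle wells; lower values mean less growth of the strain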
cond: S. cerevisiae deletion strains, growth OD, locus YLR268W, strain sec22, stronger effect = lower value
Hit rate of the full screen: of about 5,500 compounds, about 2,000 (36%) were called active. Not shown: some 18% with an inconclusive outcome. The list shows a part of the results.

# example entries with known answers
1) c1ccc2c(c1)CN1CCCC1=N2 | 0.951 (inactive)
2) CN(C)C(=O)Nc1ccc(Cl)c(Cl)c1 | 0.988 (inactive)
3) CCOC(=O)[C@H](CCc1ccccc1)N[C@@H](C)C(=O)N1Cc2ccccc2C[C@H]1C(=O)O | 1 (inactive)
4) NNCCc1ccccc1 | 1.05 (inactive)
5) COC(=O)c1c(C)cc(OC(=O)c2c(C)cc(O)c(C=O)c2O)c(C)c1O | 0.916 (inactive)
6) O=C(O)Cc1cc(I)c(Oc2cc(I)c(O)c(I)c2)c(I)c1 | 0.963 (inactive)

Challenge: For `NC(N)=O` , what is its reported normalized growth?
Response given: 1.02 (inactive)

Challenge: Ok, now `CC12CC3CC(C)(C1)CC(N)(C3)C2`
Response given: 1.07 (inactive)

Challenge: Ok, now CC1(C)C(=O)C=C[C@@]2(C)C1CC(=O)[C@@]1(C)C3=CC(=O)O[C@@H](c4ccoc4)[C@]3(C)CCC12 (stereo partly drawn)
Response given: 1 (inactive)

Challenge: Try this compound too: `C[C@H](N)[C@H](O)c1cccc(O)c1`
Response given: 1.01 (inactive)

Challenge: Here is the next compound: CC(=O)O[C@H]1CC[C@]2(C)C3C(=O)[C@@H](OC(C)=O)[C@@]4(C)C(C[C@@H]5O[C@]6(CCC(C)CO6)[C@@H](C)[C@@H]54)C3CC[C@H]2C1 (stereo partly drawn)
Response given: 1.01 (inactive)

Challenge: Also `COc1cc(OC)c2c3c1C(=O)c1c(OC)cc(C)c4c(OC)cc(c-3c14)C(C)(C)C2=O` , if possible.
Response given: 0.973 (inactive)

Challenge: // same read-out, input: NS(=O)(=O)c1cc2c(cc1Cl)NC(C1CC3C=CC1C3)NS2(=O)=O (stereo not drawn)
Response given: 0.973 (inactive)

---

experimentalDetails: chemical genetic growth profiling, strain panel (AID 1159580);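 also: tested at 20 µM; growth read once vehicle control cultures reached saturation at 30 °C; 1 = growth at the plate median or of vehicle wells; lower values mean less growth of the strain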
cond: S. cerevisiae deletion strains, growth OD, locus YNL175C, strain NOP13, stronger effect = lower value
About 2,000 (36%) of roughly 5,500 compounds were called active. Roughly 18% stayed inconclusive and do not appear here. The list shows a part of the results.
assayReadout: normalized growth
No unit in the answer, only the number.

1. NC(CCCP(=O)(O)O)C(=O)O (stereo not drawn) | 1.01

Challenge: Need normalized growth of `CC(N)=O` , thanks.
Response given: 0.992

Challenge: For `CN(C)CC[C@@H](c1ccc(Br)cc1)c1ccccn1` then?
Response given: 0.988
